Listing: number of Lc equivalents making it possible to form 50% of CuLs, Lc = EDTA of selected molecules
Assay: Competition reaction between ligand (Ls), CuCl2 and competing chelator (Lc), UV-visible; affinity constants
Settings: mixture of Ls (15 μM, 1 equivalent) and CuCl2 (1/1, mol/mol)
quantity.measured: number of Lc equivalents making it possible to form 50% of CuLs, Lc = EDTA (eq)

smiles=Oc1cccc2ccc(CCc3ccc4cccc(O)c4n3)nc12 observed=1.1
smiles=CC(C)(c1ccc2c(Cl)ccc(O)c2n1)c1ccc2c(Cl)ccc(O)c2n1 observed=0.65
smiles=Oc1ccc(Cl)c2ccc(CCc3ccc4c(Cl)ccc(O)c4n3)nc12 observed=0.65
smiles=CC(C)(c1ccc2cccc(O)c2n1)c1ccc2cccc(O)c2n1 observed=1
